Target: T1, TRAF2, Q12933
T1 chain: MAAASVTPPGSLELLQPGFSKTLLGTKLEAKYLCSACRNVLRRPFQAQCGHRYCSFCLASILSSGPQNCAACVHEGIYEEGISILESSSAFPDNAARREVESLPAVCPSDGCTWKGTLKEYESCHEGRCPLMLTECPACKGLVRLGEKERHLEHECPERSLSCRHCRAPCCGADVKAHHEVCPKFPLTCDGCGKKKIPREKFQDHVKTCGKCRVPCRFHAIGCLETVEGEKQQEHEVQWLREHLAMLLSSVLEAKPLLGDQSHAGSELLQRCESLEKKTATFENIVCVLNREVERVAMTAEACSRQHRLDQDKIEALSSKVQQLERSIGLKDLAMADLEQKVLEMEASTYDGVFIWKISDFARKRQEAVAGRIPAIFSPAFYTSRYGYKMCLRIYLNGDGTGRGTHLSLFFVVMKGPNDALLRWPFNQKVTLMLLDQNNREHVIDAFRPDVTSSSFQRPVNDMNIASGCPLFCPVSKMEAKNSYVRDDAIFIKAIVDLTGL
Assay: median log2 fold change of GCK-ALFA target abundance (FLAG IP / Myc IP barcode read proportion) (log2 ratio); each designed protein is fused to an ALFA-tag nanobody in HEK293 cells to bring the named protein to FLAG-tagged glucokinase (GCK); Myc marks an untargeted standard; higher = target protein stabilised (more abundant)
Settings: target protein: 3xFLAG-MCP-GCK-ALFA reporter; HEK293 landing pad (RPLP)
The full ranking holds about 1,800 sequences; the median of “median log2 fold change of GCK-ALFA target abundance (FLAG IP / Myc IP barcode read proportion)” is about 0.14, and the lowest 2% start at about -0.84. Shown is part of a subset that was picked to be rich in the lowest values.

{"columns": ["Binder", "median log2 fold change"],
 "data": [
  ["traf2_out_11_155_669 (protein) EEKQKLNNELVNELTKVSDELKEKVIKILKEAAEKHPEHKEEIEKVIESSKTLSGTSFARKAAQLFKELGLEEEAKKVEELLEEAQKKMNEIYKKYEKKL", 0.305],
  ["traf2_out_20_8_2269 (protein) MSMEEKLARAADLILDAKDLVRAVIREVLADERAPAIAAEAAAAISVSVSADDTDADILLRIRERATEALTRLAERTGDPRLEEARARVAAALDAAAAAA", 0.0236],
  ["traf2_out_20_3_2078 (protein) SELEAELERELDRALALLRQAAARADPETAARLDALIARLRASRELSIEDRLVAISAVRREVRALAEEARAAGRADLAALLDAAADALNRAAQLAYEILE", -0.0407],
  ["traf2_out_20_38_2004 (protein) SEEEEEEKRLEKIIQAANDALDAWEARFAALKAEGKSVEEIAEIAKEEIRRLLTAAGLEEEAEELVAQVDLVLDSPDAERLIARILARAAALVTQKKLQE", -1.04],
  ["traf2_out_17_178_1674 (protein) DKAAKRAEISALTDELIDLTEDTGTKLLALAEAEGTLTPEELALLRAALRSSSANTLLAVAEKLAPKLKTKAEAEALLKDFKEKKKELSKKIAEAYKEYE", 0.0887],
  ["traf2_out_11_155_677 (protein) EKKREINNALVDEMAAIDDATRAALDAIVDAAAAAHPEHAAALRAARDATRPYPGSSRGRALAALFRELGLEDYAAQVEALLAAAQKEKNAALKAHEAKL", -0.00384],
  ["traf2_out_20_38_2042 (protein) EEEEKEEEQIELDVEIANEALDEVEERFAKWRAEGLSLEEIAERVKEEIRKAFKEAGLEEKLPEYLEQIDLVRDSPDAERLLERILARALALVRRKKREK", -0.0369],
  ["traf2_out_16_104_1404 (protein) AEAKQAEFDAIIAELEAIADKLQKIANKLYKLYLKADPETKVKLSDALVKASEARRAALEAAERAREARETGGDLAEARAALAKAKEEAAKVEKEVKELE", 0.341],
  ["traf2_out_14_149_1247 (protein) SHMAETLRAAAELNERIAKALEEILKLLEAGKLEEAKAALEAAIKEAEALGEELGVTTSGIFEMEHILKLLKEDPEEAKKAVKEAAERARDAAEVLRSIA", -0.194]
]}
